B1: KRT34 (parent)
chain: PTVDLNQVLNETRSQYEALVETNR

# Variants of: B1
# EXPERIMENTAL PROTOCOL: protein stability index of a GFP-peptide fusion (GPS, HEK-293T) (PSI 1-6); higher = more stable;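 further: lentivirally expressed fusions sorted by FACS into six bins by GFP to DsRed ratio, PSI derived from sequencing read proportions per bin multiplied by bin number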
# CONDITION DESCRIPTION: c terminus: a fixed tail appended
Classes by protein stability index: class A: < 3; class B: ≥ 3 and < 4; class C: ≥ 4

The following variants have reported results that may help.
PTVDLNQVLNETRVQYEALVETNR : class A
PTVDLNQVLNETRSQYEAKVETNR : class C
PTVDLNQVLNETRSQYEALVETLR : class A
PTVDLNQVLNETRSQEEALVETNR : class C
PTVDLNQVLLETRSQYEALVETNR : class A
ETVDLNQVLNETRSQYEALVETNR : class A
PTVDLNQVLNETRSQYEALVETCR : class B
PTVGLNQVLNETRSQYEALVETNR : class B

INPUT: Class (by measured protein stability index) for PTVALNQVLNETRSQYEALVETNR
OUTPUT: class C

INPUT: Class (by measured protein stability index) for PTVDLNQVLNETRSQYEALVDTNR
OUTPUT: class B

INPUT: Class (by measured protein stability index) for PTVDLNQTLNETRSQYEALVETNR
OUTPUT: class B

INPUT: Class (by measured protein stability index) for PTYDLNQVLNETRSQYEALVETNR
OUTPUT: class A

INPUT: Class (by measured protein stability index) for PTVDLNQVLNETRSQYEALVETNV
OUTPUT: class A

# credit: the supplement of paper PMC10567573
